molecular target: GABA-A receptor; alpha-1/beta-2/gamma-2 (Homo sapiens) (UniProt P14867+P47870+P18507); test: In vitro GABA-mediated chloride current in A293 cells expressing GABA-A benzodiazepine receptor alpha-1-beta-2-gamma-2 subunits at 5 uM; format: functional, cell-based; settings: HEK293
Kindly return T if reported Change in Cl- current is no lower than 0.9; return F if it is lower.

# example entries with known answers
INSERT INTO measurements (item_smiles, classification) VALUES
  ('C[C@@H]1CN(C(=O)N2c3cc(Cl)ccc3-n3cnc(C(=O)OC(C)(C)C)c3C2(C)C)C[C@H](C)N1C', 'T'),
  ('C[C@@H]1CN(C(=O)N2c3cc(Cl)ccc3-n3cnc(C(=O)OC(C)(C)C)c3C2(C)C)C[C@H](C)N1', 'T'),
  ('Cc1ccc2c(c1)N(C(=O)N1C[C@@H](C)N[C@H](C)C1)Cc1c(C(=O)OC(C)(C)C)ncn1-2', 'F');

Reported Change in Cl- current at or above 0.9? CN1CCN(C(=O)N2Cc3c(C(=O)OC(C)(C)C)ncn3-c3ccc(Cl)cc32)CC1(C)C
F

Record C[C@@H]1CN(C(=O)N2Cc3c(C(=O)OC(C)(C)C)ncn3-c3cccc(Cl)c32)C[C@H](C)N1C ; criterion: Change in Cl- current no lower than 0.9. Met?
F

Decide: is the reported value of Change in Cl- current for CC(C)(C)OC(=O)c1ncn2c1CN(C(=O)N1CCN(CC(F)(F)F)CC1)c1cc(Cl)ccc1-2 equal to or greater than 0.9?
T

Does CN(C)C(=O)N1Cc2c(C(=O)OC(C)(C)C)ncn2-c2ccccc21 have a reported Change in Cl- current of at least 0.9?
F
